Test system: Escherichia coli TOP10
Assay: shrunken log2 fold change of peptide-encoding DNA abundance (4.5 h post-induction vs induction); higher = less antimicrobial activity (less host growth inhibition)
Details: time post-induction: 4.5 h; library: site-saturation at positions 5, 18, 19, 20
Please provide measured shrunken log2 fold change for the entries that follow.
API doc: respond with a numeric literal and nothing else, no unit.

IN: Give the reported shrunken log2 fold change for RRIRSRPPRLPRPRPRPVQFPRP (system: Escherichia coli TOP10).
OUT: 0.11

IN: Give the reported shrunken log2 fold change for RRIRLRPPRLPRPRPRPIRSPRP (system: Escherichia coli TOP10).
OUT: -0.0199

IN: Give the reported shrunken log2 fold change for RRIRMRPPRLPRPRPRPTSGPRP (system: Escherichia coli TOP10).
OUT: 1.06

IN: Give the reported shrunken log2 fold change for RRIRYRPPRLPRPRPRPEIMPRP (system: Escherichia coli TOP10).
OUT: -0.272

IN: Give the reported shrunken log2 fold change for RRIRSRPPRLPRPRPRPWDMPRP (system: Escherichia coli TOP10).
OUT: -0.254

IN: Give the reported shrunken log2 fold change for RRIRMRPPRLPRPRPRPSVNPRP (system: Escherichia coli TOP10).
OUT: -0.0473

IN: Give the reported shrunken log2 fold change for RRIRLRPPRLPRPRPRPVWCPRP (system: Escherichia coli TOP10).
OUT: 0.0297

IN: Give the reported shrunken log2 fold change for RRIRDRPPRLPRPRPRPLQQPRP (system: Escherichia coli TOP10).
OUT: 0.104

IN: Give the reported shrunken log2 fold change for RRIRPRPPRLPRPRPRPMCKPRP (system: Escherichia coli TOP10).
OUT: -0.274

IN: Give the reported shrunken log2 fold change for RRIRGRPPRLPRPRPRPVNGPRP (system: Escherichia coli TOP10).
OUT: -0.0658

IN: Give the reported shrunken log2 fold change for RRIRVRPPRLPRPRPRPKHIPRP (system: Escherichia coli TOP10).
OUT: -0.47

IN: Give the reported shrunken log2 fold change for RRIRWRPPRLPRPRPRPPIMPRP (system: Escherichia coli TOP10).
OUT: 0.271

IN: Give the reported shrunken log2 fold change for RRIRARPPRLPRPRPRPGRYPRP (system: Escherichia coli TOP10).
OUT: 0.54

IN: Give the reported shrunken log2 fold change for RRIRMRPPRLPRPRPRPHFWPRP (system: Escherichia coli TOP10).
OUT: 0.774

IN: Give the reported shrunken log2 fold change for RRIRSRPPRLPRPRPRPNDNPRP (system: Escherichia coli TOP10).
OUT: -0.57

IN: Give the reported shrunken log2 fold change for RRIRQRPPRLPRPRPRPRPSPRP (system: Escherichia coli TOP10).
OUT: 0.112

IN: Give the reported shrunken log2 fold change for RRIRLRPPRLPRPRPRPKSMPRP (system: Escherichia coli TOP10).
OUT: -0.0449

IN: Give the reported shrunken log2 fold change for RRIRGRPPRLPRPRPRPQTPPRP (system: Escherichia coli TOP10).
OUT: 1.36

IN: Give the reported shrunken log2 fold change for RRIRQRPPRLPRPRPRPFVKPRP (system: Escherichia coli TOP10).
OUT: -0.234

IN: Give the reported shrunken log2 fold change for RRIRIRPPRLPRPRPRPDPNPRP (system: Escherichia coli TOP10).
OUT: -0.546

IN: Give the reported shrunken log2 fold change for RRIRERPPRLPRPRPRPDPIPRP (system: Escherichia coli TOP10).
OUT: -0.224

IN: Give the reported shrunken log2 fold change for RRIRARPPRLPRPRPRPCMQPRP (system: Escherichia coli TOP10).
OUT: -0.125

----------
Please provide measured shrunken log2 fold change for the entries that follow.
System: Escherichia coli TOP10
Test: shrunken log2 fold change of peptide-encoding DNA abundance (4.5 h post-induction vs induction); higher = less antimicrobial activity (less host growth inhibition)
Details: time post-induction: 4.5 h; library: site-saturation at positions 5, 18, 19, 20
API doc: respond with a numeric literal and nothing else, no unit.

IN: Recorded shrunken log2 fold change of RRIRRRPPRLPRPRPRPCGMPRP , please.
OUT: 0.114

IN: Recorded shrunken log2 fold change of RRIRHRPPRLPRPRPRPGCAPRP , please.
OUT: 0.124

IN: Recorded shrunken log2 fold change of RRIRPRPPRLPRPRPRPGNPPRP , please.
OUT: -0.043

IN: Recorded shrunken log2 fold change of RRIRMRPPRLPRPRPRPSEKPRP , please.
OUT: 0.938

IN: Recorded shrunken log2 fold change of RRIRARPPRLPRPRPRPKVIPRP , please.
OUT: 0.116

IN: Recorded shrunken log2 fold change of RRIRNRPPRLPRPRPRPRCIPRP , please.
OUT: -0.256

IN: Recorded shrunken log2 fold change of RRIRLRPPRLPRPRPRPQWAPRP , please.
OUT: 0.123

IN: Recorded shrunken log2 fold change of RRIRDRPPRLPRPRPRPQVEPRP , please.
OUT: 0.0699

IN: Recorded shrunken log2 fold change of RRIRVRPPRLPRPRPRPGIMPRP , please.
OUT: -0.000355

IN: Recorded shrunken log2 fold change of RRIRQRPPRLPRPRPRPHQSPRP , please.
OUT: 0.0405

IN: Recorded shrunken log2 fold change of RRIRERPPRLPRPRPRPIELPRP , please.
OUT: -0.163

IN: Recorded shrunken log2 fold change of RRIRWRPPRLPRPRPRPMWPPRP , please.
OUT: 0.214

IN: Recorded shrunken log2 fold change of RRIRPRPPRLPRPRPRPYQAPRP , please.
OUT: -0.0753

IN: Recorded shrunken log2 fold change of RRIRNRPPRLPRPRPRPCKWPRP , please.
OUT: -0.339

IN: Recorded shrunken log2 fold change of RRIRGRPPRLPRPRPRPISNPRP , please.
OUT: 0.0729

IN: Recorded shrunken log2 fold change of RRIRFRPPRLPRPRPRPCCEPRP , please.
OUT: -0.414

IN: Recorded shrunken log2 fold change of RRIRQRPPRLPRPRPRPNATPRP , please.
OUT: 0.251

IN: Recorded shrunken log2 fold change of RRIRVRPPRLPRPRPRPSSHPRP , please.
OUT: -0.344

----------
Test system: Escherichia coli TOP10
Experiment: shrunken log2 fold change of peptide-encoding DNA abundance (4.5 h post-induction vs induction); higher = less antimicrobial activity (less host growth inhibition)
Settings: time post-induction: 4.5 h; library: site-saturation at positions 5, 18, 19, 20
recorded-endpoint: shrunken log2 fold change
API doc: respond with a numeric literal and nothing else, no unit.

IN: Give the reported shrunken log2 fold change for RRIRWRPPRLPRPRPRPARNPRP (system: Escherichia coli TOP10).
OUT: 0.256

IN: Give the reported shrunken log2 fold change for RRIRARPPRLPRPRPRPFDMPRP (system: Escherichia coli TOP10).
OUT: 0.0608

IN: Give the reported shrunken log2 fold change for RRIRVRPPRLPRPRPRPLNKPRP (system: Escherichia coli TOP10).
OUT: -0.323

IN: Give the reported shrunken log2 fold change for RRIRLRPPRLPRPRPRPCGAPRP (system: Escherichia coli TOP10).
OUT: 0.356

IN: Give the reported shrunken log2 fold change for RRIRERPPRLPRPRPRPMNAPRP (system: Escherichia coli TOP10).
OUT: -0.259

IN: Give the reported shrunken log2 fold change for RRIRPRPPRLPRPRPRPVKNPRP (system: Escherichia coli TOP10).
OUT: 0.00624

IN: Give the reported shrunken log2 fold change for RRIRWRPPRLPRPRPRPYLWPRP (system: Escherichia coli TOP10).
OUT: -0.153

IN: Give the reported shrunken log2 fold change for RRIRFRPPRLPRPRPRPSLTPRP (system: Escherichia coli TOP10).
OUT: -0.413

IN: Give the reported shrunken log2 fold change for RRIRARPPRLPRPRPRPMPQPRP (system: Escherichia coli TOP10).
OUT: 0.378

IN: Give the reported shrunken log2 fold change for RRIRCRPPRLPRPRPRPAKCPRP (system: Escherichia coli TOP10).
OUT: -0.101

IN: Give the reported shrunken log2 fold change for RRIRFRPPRLPRPRPRPFSDPRP (system: Escherichia coli TOP10).
OUT: -0.229

IN: Give the reported shrunken log2 fold change for RRIRCRPPRLPRPRPRPDQSPRP (system: Escherichia coli TOP10).
OUT: 0.112

IN: Give the reported shrunken log2 fold change for RRIRARPPRLPRPRPRPDTDPRP (system: Escherichia coli TOP10).
OUT: 0.365

IN: Give the reported shrunken log2 fold change for RRIRMRPPRLPRPRPRPDHDPRP (system: Escherichia coli TOP10).
OUT: -0.0765

IN: Give the reported shrunken log2 fold change for RRIRQRPPRLPRPRPRPCMDPRP (system: Escherichia coli TOP10).
OUT: 0.00489

IN: Give the reported shrunken log2 fold change for RRIRCRPPRLPRPRPRPGWFPRP (system: Escherichia coli TOP10).
OUT: 0.0546

IN: Give the reported shrunken log2 fold change for RRIRNRPPRLPRPRPRPYIWPRP (system: Escherichia coli TOP10).
OUT: -0.588

IN: Give the reported shrunken log2 fold change for RRIRLRPPRLPRPRPRPLCNPRP (system: Escherichia coli TOP10).
OUT: -0.453

IN: Give the reported shrunken log2 fold change for RRIRHRPPRLPRPRPRPRKYPRP (system: Escherichia coli TOP10).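 Further: peptides expressed intracellularly from a pBAD plasmid library in pooled LB shake-flask culture, induced with 0.3% L-arabinose, DNA abundance read by NGS, three biological replicates, DESeq2 with apeglm shrinkage.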
OUT: -0.556

From: the supplement of paper PMC9112550
